# TEST_SUMMARY: Thermodynamic solubility in 13 solvents at RT and 50° C. by UPLC
# Format: physicochemical
# TEST_PARAMETERS: MeOH, 50 °C, organic solvent or mixture, thermodynamic from solid, MeOH, 50° C.; read-out: Solubility at 50° C.(mg/mL)
VALUE_KIND: solubility

Identify solubility associated with the compound Cc1ccc(NC(=O)N2CC[C@@H](CC(F)(F)F)C2)cc1-c1cc(N[C@H](C)CO)nc(N2CCOCC2)c1.Cl
~102 mg/mL

====

# TEST_SUMMARY: Thermodynamic solubility in 13 solvents at RT and 50° C. by UPLC
# Assay type: physicochemical
# TEST_PARAMETERS: EtOH and water, water, thermodynamic from solid, EtOH and water (slightly soluble); read-out: solubility
# Description: Thermodynamic solubility of Compound 2 was measured in 13 solvents at RT and 50° C. by UPLC, respectively. […] In most of other selected solvents, the compound was almost insoluble (<0.5 mg/mL) except in EtOH and water where it was slightly soluble (6-9 mg/mL).
VALUE_KIND: solubility

Identify solubility associated with the compound Cc1ccc(NC(=O)N2CC[C@@H](CC(F)(F)F)C2)cc1-c1cc(N[C@H](C)CO)nc(N2CCOCC2)c1.Cl
6000 to 9000 µg/mL

====

# TEST_SUMMARY: Solubility of Compound 1 in solvents
# Type: physicochemical
# TEST_PARAMETERS: acetonitrile, organic solvent or mixture
VALUE_KIND: solubility

Identify solubility associated with the compound Cc1ccc(NC(=O)N2CC[C@@H](CC(F)(F)F)C2)cc1-c1cc(N[C@H](C)CO)nc(N2CCOCC2)c1
> 100 mg/mL

====

# TEST_SUMMARY: Solubility of Compound 1 in solvents
# Type: physicochemical
# TEST_PARAMETERS: isopropyl alcohol, organic solvent or mixture
VALUE_KIND: solubility

Identify solubility associated with the compound Cc1ccc(NC(=O)N2CC[C@@H](CC(F)(F)F)C2)cc1-c1cc(N[C@H](C)CO)nc(N2CCOCC2)c1 [Compound 1]
> 100 mg/mL

====

# TEST_SUMMARY: Thermodynamic solubility in 13 solvents at RT and 50° C. by UPLC
# Format: physicochemical
# TEST_PARAMETERS: ACN, organic solvent or mixture, thermodynamic from solid, ACN, RT; read-out: Solubility at RT
VALUE_KIND: solubility (µg/mL)
Give the value in µg/mL but do not write µg/mL after it.

Identify solubility associated with the molecule Cc1ccc(NC(=O)N2CC[C@@H](CC(F)(F)F)C2)cc1-c1cc(N[C@H](C)CO)nc(N2CCOCC2)c1.Cl
10

====

# TEST_SUMMARY: Thermodynamic solubility in 13 solvents at RT and 50° C. by UPLC
# Assay type: physicochemical
# TEST_PARAMETERS: acetone, 50 °C, organic solvent or mixture, thermodynamic from solid, Acetone, 50° C.; read-out: Solubility at 50° C.(mg/mL)
VALUE_KIND: solubility (mg/mL)
Give the value in mg/mL but do not write mg/mL after it.

Identify solubility associated with the compound Cc1ccc(NC(=O)N2CC[C@@H](CC(F)(F)F)C2)cc1-c1cc(N[C@H](C)CO)nc(N2CCOCC2)c1.Cl
0.45

====

# TEST_SUMMARY: Thermodynamic solubility in 13 solvents at RT and 50° C. by UPLC
# Format: physicochemical
# TEST_PARAMETERS: EtOH, 50 °C, organic solvent or mixture, thermodynamic from solid, EtOH, 50° C.; read-out: Solubility at 50° C.(mg/mL)
# Description: Thermodynamic solubility of Compound 2 was measured in 13 solvents at RT and 50° C. by UPLC, respectively. […] In most of other selected solvents, the compound was almost insoluble (<0.5 mg/mL) except in EtOH and water where it was slightly soluble (6-9 mg/mL).
VALUE_KIND: solubility (mg/mL)
Give the value in mg/mL but do not write mg/mL after it.

Identify solubility associated with the compound Cc1ccc(NC(=O)N2CC[C@@H](CC(F)(F)F)C2)cc1-c1cc(N[C@H](C)CO)nc(N2CCOCC2)c1.Cl [Compound 2]
8.82

====

# TEST_SUMMARY: Thermodynamic solubility in 13 solvents at RT and 50° C. by UPLC
# Format: physicochemical
# TEST_PARAMETERS: organic solvent or mixture, thermodynamic from solid, most of other selected solvents (almost insoluble); read-out: solubility
VALUE_KIND: solubility

Identify solubility associated with the compound Cc1ccc(NC(=O)N2CC[C@@H](CC(F)(F)F)C2)cc1-c1cc(N[C@H](C)CO)nc(N2CCOCC2)c1.Cl
< 500 µg/mL

====

# TEST_SUMMARY: Thermodynamic solubility in 13 solvents at RT and 50° C. by UPLC
# Type: physicochemical
# TEST_PARAMETERS: EtOH, organic solvent or mixture, thermodynamic from solid, EtOH, RT; read-out: Solubility at RT
VALUE_KIND: solubility (µg/mL)
Give the value in µg/mL but do not write µg/mL after it.

Identify solubility associated with the compound Cc1ccc(NC(=O)N2CC[C@@H](CC(F)(F)F)C2)cc1-c1cc(N[C@H](C)CO)nc(N2CCOCC2)c1.Cl
7150

====

# TEST_SUMMARY: Thermodynamic solubility in 13 solvents at RT and 50° C. by UPLC
# Type: physicochemical
# TEST_PARAMETERS: MEK, 50 °C, organic solvent or mixture, thermodynamic from solid, MEK, 50° C.; read-out: Solubility at 50° C.(mg/mL)
VALUE_KIND: solubility (mg/mL)
Give the value in mg/mL but do not write mg/mL after it.

Identify solubility associated with the molecule Cc1ccc(NC(=O)N2CC[C@@H](CC(F)(F)F)C2)cc1-c1cc(N[C@H](C)CO)nc(N2CCOCC2)c1.Cl [Compound 2]
0.28

====

# TEST_SUMMARY: Solubility of Compound 1 in solvents
# Type: physicochemical
# TEST_PARAMETERS: methanol, organic solvent or mixture
VALUE_KIND: solubility

Identify solubility associated with the molecule Cc1ccc(NC(=O)N2CC[C@@H](CC(F)(F)F)C2)cc1-c1cc(N[C@H](C)CO)nc(N2CCOCC2)c1 [Compound 1]
> 100 mg/mL

====

# TEST_SUMMARY: Thermodynamic solubility in 13 solvents at RT and 50° C. by UPLC
# Assay type: physicochemical
# TEST_PARAMETERS: EA, organic solvent or mixture, thermodynamic from solid, EA, RT; read-out: Solubility at RT
VALUE_KIND: solubility

Identify solubility associated with the molecule Cc1ccc(NC(=O)N2CC[C@@H](CC(F)(F)F)C2)cc1-c1cc(N[C@H](C)CO)nc(N2CCOCC2)c1.Cl
60 µg/mL

====

# TEST_SUMMARY: Solubility of Compound 1 in solvents
# Assay type: physicochemical
# TEST_PARAMETERS: water
VALUE_KIND: solubility

Identify solubility associated with the compound Cc1ccc(NC(=O)N2CC[C@@H](CC(F)(F)F)C2)cc1-c1cc(N[C@H](C)CO)nc(N2CCOCC2)c1 [Compound 1]
< 1000 µg/mL

====

# TEST_SUMMARY: Solubility of Compound 1 in solvents
# Format: physicochemical
# TEST_PARAMETERS: methyl t-butyl ether, organic solvent or mixture
VALUE_KIND: solubility

Identify solubility associated with the molecule Cc1ccc(NC(=O)N2CC[C@@H](CC(F)(F)F)C2)cc1-c1cc(N[C@H](C)CO)nc(N2CCOCC2)c1
~60 mg/mL

====

# TEST_SUMMARY: Thermodynamic solubility in 13 solvents at RT and 50° C. by UPLC
# Type: physicochemical
# TEST_PARAMETERS: cyclohexane, 50 °C, organic solvent or mixture, thermodynamic from solid, Cyclohexane, 50° C.; read-out: Solubility at 50° C.(mg/mL)
VALUE_KIND: solubility (mg/mL)
Give the value in mg/mL but do not write mg/mL after it.

Identify solubility associated with the compound Cc1ccc(NC(=O)N2CC[C@@H](CC(F)(F)F)C2)cc1-c1cc(N[C@H](C)CO)nc(N2CCOCC2)c1.Cl [Compound 2]
0.05

====

# TEST_SUMMARY: Comparison dissolution trials in water and biorelevant media
# Format: physicochemical
# TEST_PARAMETERS: simulated gastric fluid, thermodynamic from solid; SGF, 37° C., 24 h; read-out: Solubility (mg/mL) 24 h
VALUE_KIND: solubility at 24 h (mg/mL)
Give the value in mg/mL but do not write mg/mL after it.

Identify solubility at 24 h associated with the compound Cc1ccc(NC(=O)N2CC[C@@H](CC(F)(F)F)C2)cc1-c1cc(N[C@H](C)CO)nc(N2CCOCC2)c1
0.83

Identify solubility at 24 h associated with the compound Cc1ccc(NC(=O)N2CC[C@@H](CC(F)(F)F)C2)cc1-c1cc(N[C@H](C)CO)nc(N2CCOCC2)c1.Cl
0.39

====

# TEST_SUMMARY: Thermodynamic solubility in 13 solvents at RT and 50° C. by UPLC
# Assay type: physicochemical
# TEST_PARAMETERS: IPA, organic solvent or mixture, thermodynamic from solid, IPA, RT; read-out: Solubility at RT
VALUE_KIND: solubility (µg/mL)
Give the value in µg/mL but do not write µg/mL after it.

Identify solubility associated with the compound Cc1ccc(NC(=O)N2CC[C@@H](CC(F)(F)F)C2)cc1-c1cc(N[C@H](C)CO)nc(N2CCOCC2)c1.Cl [Compound 2]
1690

From: patent US12692248B2
